Cited source: BindingDB's records for doi:10.1021/acs.jmedchem.0c02249

# ASSAY TARGET: UniProtKB Q64663
# Sequence (Q64663 whole entry): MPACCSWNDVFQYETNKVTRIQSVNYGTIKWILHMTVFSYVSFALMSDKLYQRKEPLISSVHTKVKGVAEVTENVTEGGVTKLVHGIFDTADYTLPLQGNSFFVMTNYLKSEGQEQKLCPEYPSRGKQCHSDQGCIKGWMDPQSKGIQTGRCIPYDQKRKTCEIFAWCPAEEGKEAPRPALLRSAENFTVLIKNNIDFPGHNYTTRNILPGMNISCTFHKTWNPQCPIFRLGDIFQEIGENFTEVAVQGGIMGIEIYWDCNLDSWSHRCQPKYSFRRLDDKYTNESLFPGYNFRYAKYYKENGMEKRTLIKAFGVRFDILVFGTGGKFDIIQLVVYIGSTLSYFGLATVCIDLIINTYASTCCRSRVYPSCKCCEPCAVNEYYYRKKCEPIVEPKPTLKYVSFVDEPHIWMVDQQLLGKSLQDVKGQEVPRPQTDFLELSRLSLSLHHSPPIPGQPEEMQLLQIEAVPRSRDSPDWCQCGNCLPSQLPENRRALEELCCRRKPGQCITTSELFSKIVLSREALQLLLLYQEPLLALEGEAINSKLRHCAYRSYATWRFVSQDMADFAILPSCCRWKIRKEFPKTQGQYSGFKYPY
# ASSAY TEXT: Antagonist activity at rat P2X7 receptor expressed in HEK293 cells assessed as inhibition of BzATP-induced calcium-flux measured after 60 mins by FLIPR analysis
PARAMETER MEASURED: pIC50
pIC50 field: float, defined as -log10 of concentration (mol/L).

Lookup: pIC50 of "CCOc1ccc(Nc2ccc(/C(=C3C=C/C(=[N+](/CC)Cc4cccc(S(=O)(=O)[O-])c4)C=C/3C)c3ccc(N(CC)Cc4cccc(S(=O)(=O)O)c4)cc3C)cc2)cc1" on UniProtKB Q64663?
Found: 6.70

* * *

# ASSAY TARGET: UniProt:Q99572
# Sequence (Q99572 whole entry): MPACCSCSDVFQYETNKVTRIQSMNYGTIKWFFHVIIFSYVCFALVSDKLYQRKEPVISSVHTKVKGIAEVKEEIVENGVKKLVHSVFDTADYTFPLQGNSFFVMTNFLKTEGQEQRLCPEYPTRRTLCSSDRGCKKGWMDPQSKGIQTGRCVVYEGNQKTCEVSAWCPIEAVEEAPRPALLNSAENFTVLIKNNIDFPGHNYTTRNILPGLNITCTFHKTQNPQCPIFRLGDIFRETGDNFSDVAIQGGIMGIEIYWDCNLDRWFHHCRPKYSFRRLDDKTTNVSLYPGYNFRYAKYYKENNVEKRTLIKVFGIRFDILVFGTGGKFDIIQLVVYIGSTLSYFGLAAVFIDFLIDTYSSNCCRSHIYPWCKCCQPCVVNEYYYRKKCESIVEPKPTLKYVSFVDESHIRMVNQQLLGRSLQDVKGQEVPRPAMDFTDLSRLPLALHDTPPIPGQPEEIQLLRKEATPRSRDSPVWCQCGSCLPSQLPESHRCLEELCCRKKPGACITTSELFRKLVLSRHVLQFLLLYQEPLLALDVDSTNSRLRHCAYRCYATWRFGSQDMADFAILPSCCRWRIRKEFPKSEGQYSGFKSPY
# ASSAY TEXT: Antagonist activity at human P2X7 receptor expressed in HEK293 cells assessed as inhibition of BzATP-induced calcium-flux measured after 60 mins by FLIPR analysis
PARAMETER MEASURED: IC50 (µM)
Quick note: give the figure in µM, leave out the unit.

Lookup: What does the data say about its IC50? Entry: CCOc1ccc(Nc2ccc(/C(=C3C=C/C(=[N+](/CC)Cc4cccc(S(=O)(=O)[O-])c4)C=C/3C)c3ccc(N(CC)Cc4cccc(S(=O)(=O)O)c4)cc3C)cc2)cc1 [E133]
Found: 5.8
